System: human MDR1 P-gp
Experiment: Efflux in MDCK cells transfected with the human MDR1 gene (MDCK-PGP permeability)
Format: in vitro ADME, canine
Conditions: dog, PEBA/PEAB, pH 7.4, 37° C.
Threshold 0.8. efflux ratio below it: satisfied. efflux ratio at it or above: not satisfied.

Does this compound meet the criterion efflux ratio < 0.8? Cc1nnn(-c2ccc(C(F)F)cc2)c1COc1ccc(-n2cnc(C(F)F)c2)nn1 [Example 15]
not satisfied

State whether 0.8 exceeds efflux ratio recorded for CC(=O)c1cn(-c2ccc(OCc3c(C)nnn3-c3ccc(C(F)F)cc3)nn2)cn1 [Example 32] .
not satisfied

Confirm or reject: efflux ratio of Cc1nnn(-c2ccc(C(F)F)cc2)c1COc1ccc(-n2cnc(C#N)c2)nn1 [Example 1] lies strictly below 0.8
not satisfied

# strict comparison: is reported efflux ratio < 0.8? input = Cc1nnn(-c2ccc(C(F)F)cc2)c1COc1ccc(-c2cncnc2)nn1 [Example 22]
not satisfied

Field: below-cutoff. Rule: recorded efflux ratio strictly less than 0.8. Subject: Cc1nnn(-c2ccc(C(F)F)cc2)c1COc1ccc(-c2cnccn2)nn1 [Example 13]
satisfied

I wonder whether Cc1nnn(-c2ccc(C(F)F)cc2)c1COc1ccc(-n2cncn2)nn1 [Example 28] has efflux ratio below 0.8. Can you tell?
satisfied

Given the entry COC(=O)c1cn(-c2ccc(OCc3c(C)nnn3-c3ccc(C(F)F)cc3)nn2)cn1 [Example 29] , would its reported efflux ratio be below 0.8?
not satisfied

Consider Cc1nnn(-c2ccc(C(F)F)cc2)c1COc1ccc(-n2cnc(C[N+](C)(C)C)c2)nn1.O=C([O-])C(F)(F)F [Example 36] . Does its efflux ratio lie strictly below 0.8?
satisfied

Lab log: compare recorded efflux ratio with 0.8; is it strictly lower for Cc1ncc(-c2ccc(OCc3c(C)nnn3-c3ccc(C(F)F)cc3)nn2)o1 [Example 6] ?
satisfied

---

Biological target: α5β2γ2 GABAA receptor (Homo sapiens, UniProt P18507+P31644)
Sequence (P31644 32-462): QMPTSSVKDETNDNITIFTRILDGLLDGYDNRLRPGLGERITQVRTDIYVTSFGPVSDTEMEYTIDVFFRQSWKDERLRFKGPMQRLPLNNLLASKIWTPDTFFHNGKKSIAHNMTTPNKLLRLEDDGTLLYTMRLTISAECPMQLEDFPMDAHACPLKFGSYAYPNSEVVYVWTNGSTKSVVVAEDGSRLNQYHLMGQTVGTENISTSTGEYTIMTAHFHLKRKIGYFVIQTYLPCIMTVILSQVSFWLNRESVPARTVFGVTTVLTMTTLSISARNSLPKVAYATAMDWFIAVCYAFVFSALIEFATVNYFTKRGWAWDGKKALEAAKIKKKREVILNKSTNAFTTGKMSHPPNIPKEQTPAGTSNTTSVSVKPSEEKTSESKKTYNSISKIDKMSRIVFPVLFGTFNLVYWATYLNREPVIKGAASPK
Sequence (P18507 40-376 limits assumed): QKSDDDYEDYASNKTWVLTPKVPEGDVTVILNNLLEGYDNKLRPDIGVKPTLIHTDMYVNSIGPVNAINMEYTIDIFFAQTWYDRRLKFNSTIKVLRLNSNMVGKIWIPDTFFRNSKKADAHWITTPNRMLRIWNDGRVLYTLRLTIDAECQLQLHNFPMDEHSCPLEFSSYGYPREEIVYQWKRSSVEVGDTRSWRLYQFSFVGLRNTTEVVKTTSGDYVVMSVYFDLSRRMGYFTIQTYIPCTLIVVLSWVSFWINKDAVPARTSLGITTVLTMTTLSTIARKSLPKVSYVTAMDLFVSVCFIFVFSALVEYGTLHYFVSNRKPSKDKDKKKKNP
Assay: Assay B: modulation of α5β2γ2 GABAA receptor, two-electrode voltage clamp in oocytes
Conditions: oocytes, TEVC, co-application with GABA 0.5 μM (EC5-20); read-out: Assay B: GABAA α5β3γ2 EC50
pEC50: −log10 of the molar value.
Quick rule: pEC50 of at least 8 means yes, below that means no.

Cc1nnn(-c2ccc(C(F)F)cc2)c1COc1ccc(-n2ccc(C(F)(F)F)n2)nn1
no

Quick check, pEC50 >= 8? Cc1nnn(-c2ccc(C(F)F)cc2)c1COc1ccc(-n2cc3c(n2)CCNC3=O)nn1
yes

Is pEC50 at least 8? Consider Cc1nnn(-c2ccc(C(F)F)cc2)c1COc1ccc(-n2cnc(CO)c2)nn1
yes

Quick check, pEC50 >= 8? Cc1nnn(-c2ccc(C(F)F)cc2)c1COc1ccc(-c2cnc(OCC(C)(C)O)nc2)nn1
no

Determine whether measured pEC50 meets or exceeds 8 for Cc1nnn(-c2ccc(C(F)F)cc2)c1COc1ccc(-c2cncnc2)nn1
yes

Does Cc1nnn(-c2ccc(C(F)F)cc2)c1COc1ccc(-c2cnn(C)c2)nn1 have a reported pEC50 of at least 8?
yes

Assess whether reported pEC50 for Cc1nnn(-c2ccc(C(F)F)cc2)c1COc1ccc(-n2cnc([S+](C)[O-])c2)nn1 (centres unmarked) sits at 8 or higher.
yes

Determine whether measured pEC50 meets or exceeds 8 for Cc1nnn(-c2ccc(C(F)F)cc2)c1COc1ccc(-n2cnc(C=O)c2)nn1
yes

Quick check: does Cc1nnn(-c2ccc(C(F)F)cc2)c1COc1ccc(-n2cnc(C#N)c2)nn1 have pEC50 greater than or equal to 8?
yes

# check: pEC50 of Cc1nnn(-c2ccc(C(F)F)cc2)c1COc1ccc(-c2ccn[nH]2)nn1 is greater than or equal to 8
yes

---

System: human MDR1 P-gp
Test: Efflux in MDCK cells transfected with the human MDR1 gene (MDCK-PGP permeability)
Type: in vitro ADME, canine
Settings: dog, apical-to-basal apparent permeability (PEAB), pH 7.4, 37° C.
Protocol: Assessment of Efflux in Madin-Darby Canine Kidney (MDCK) Cells Transfected with the 30 Human MDR1 Gene to Assess Brain Penetration (Drug Metabolism and Disposition February 2008, 36 (2) 268-275; DOI: https://doi.org/10.1124/dmd.107.017434) Apparent permeability coefficients (PE) of the compounds across the MDCK-MDR1 cell monolayers are measured (pH 7.4, 37° C.) in apical-to-basal (AB) and basal-to-apical (BA) transport direction. […]
readout label: Papp A→B (×10⁻⁶ cm/s)
One number for each entry, in ×10⁻⁶ cm/s.

Cc1nnn(-c2ccc(C(F)F)cc2)c1COc1ccc(-n2cnc(C(=O)O)c2)nn1
0.7
Cc1nnn(-c2ccc(C(F)F)cc2)c1COc1ccc(-n2ccc(C(N)=O)n2)nn1
25
Cc1nnn(-c2ccc(C(F)F)cc2)c1COc1ccc(-n2ccc(C(F)(F)F)n2)nn1
51.3
CNC(=O)c1cn(-c2ccc(OCc3c(C)nnn3-c3ccc(C(F)F)cc3)nn2)cn1
14.6
Cc1nnn(-c2ccc(C(F)F)cc2)c1COc1ccc(-n2ccc(C#N)n2)nn1
52
Cc1cc(-c2ccc(OCc3c(C)nnn3-c3ccc(C(F)F)cc3)nn2)cnn1
18.8

Next, consider the following compound.
# get_value(readout='Papp A→B', item= Cc1nnn(-c2ccc(C(F)F)cc2)c1COc1ccc(-n2cc(C(F)(F)F)cn2)nn1 )
56.1

---

Biological target: human GABAA α5β3γ2s receptor (Homo sapiens, UniProt P18507+P31644)
Experiment: Assay A: in vitro inhibition of 3H-flumazenil binding, HEK cells expressing human GABAA α5β3γ2s receptor
Conditions: 3H-flumazenil 1 nM, HEK-293 membranes, 40 min at 2° C.; Ki from IC50 by Cheng and Prusoff
readout label: Ki (nM)
Give bare numbers, in nM.

Past entries and their recorded results:
Cc1nnn(-c2ccc(C(F)F)cc2)c1COc1ccc(-c2cnn(C3CC3)c2)nn1
0.25
Cc1nnn(-c2ccc(C(F)F)cc2)c1COc1ccc(-n2ccc(C(N)=O)n2)nn1
0.047
Cc1nnn(-c2ccc(C(F)F)cc2)c1COc1ccc(-n2cnc(S(C)(=O)=O)c2)nn1
0.38
Cc1nnn(-c2ccc(C(F)F)cc2)c1COc1ccc(-n2cnc(C(C)(C)O)c2)nn1
0.14

Now for the compound whose Ki we want.
What does the data say about its Ki? Entry: Cc1nnn(-c2ccc(C(F)F)cc2)c1COc1ccc(-c2cncc(-n3ccnc3)c2)nn1
0.055

---

Biological target: α5β2γ2 GABAA receptor (Homo sapiens, UniProt P18507+P31644)
Experiment: Assay B: modulation of α5β2γ2 GABAA receptor, two-electrode voltage clamp in oocytes
Assay type: cell-based
readout label: Assay B: GABAA α5β3γ2 Emax vs GABA (%)
One number for each entry, in %.

Solved entries:
Cc1nnn(-c2ccc(C(F)F)cc2)c1COc1ccc(-n2cnc([S+](C)[O-])c2)nn1 (stereo not drawn)
-12
Cc1nnn(-c2ccc(C(F)F)cc2)c1COc1ccc(-n2cc(C(F)(F)F)cn2)nn1
-0.7

List the reported Assay B: GABAA α5β3γ2 Emax vs GABA of each molecule below.
1. Cc1nnn(-c2ccc(C(F)F)cc2)c1COc1ccc(-n2cnc(C(=O)O)c2)nn1
2. Cc1nnn(-c2ccc(C(F)F)cc2)c1COc1ccc(-n2cnc(C(F)F)c2)nn1
3. Cc1nnn(-c2ccc(C(F)F)cc2)c1COc1ccc(-n2ccc(C#N)n2)nn1
4. CC(=O)c1cn(-c2ccc(OCc3c(C)nnn3-c3ccc(C(F)F)cc3)nn2)cn1

1: -28.2; 2: -42.5; 3: -19.7; 4: -22.8
